relative viability by entry:
Test system: EKVX
Assay: relative viability (nuclei count vs DMSO), 5 days (fraction); higher = more cells survive
Conditions: first compound 0.08 µM
Kindly provide the number alone.

// query What relative viability value was documented for this compound, O=c1cc(-c2cccc3c2Sc2ccccc2S3)oc(N2CCOCC2)c1 + Cc1nc(NC(=O)N2CCC[C@H]2C(N)=O)sc1-c1ccnc(C(C)(C)C(F)(F)F)c1 [Alpelisib] (partner 2 µM) ?
// result 1.05

// query What value of measured relative viability is listed for COc1nc(C)cnc1NS(=O)(=O)c1cccnc1-c1ccc(-c2nnco2)cc1 [Zibotentan] + COc1cccc2cc(-c3nc([C@H]4CC[C@H](C(=O)O)CC4)n4ncnc(N)c34)[nH]c12 [OSI-027] (partner 0.5 µM) ?
// result 0.715

// query Query: relative viability; subject: O=c1cc(-c2cccc3c2Sc2ccccc2S3)oc(N2CCOCC2)c1 + Nc1ncn([C@H]2C[C@H](O)[C@@H](CO)O2)c(=O)n1 [Decitabine] (partner 2 µM)
// result 0.431

// query Please give the measured relative viability for this compound: O=c1cc(-c2cccc3c2Sc2ccccc2S3)oc(N2CCOCC2)c1 + CC(=O)Nc1cccc(-n2c(=O)n(C3CC3)c(=O)c3c(Nc4ccc(I)cc4F)n(C)c(=O)c(C)c32)c1 [Trametinib] (partner 0.02 µM)
// result 0.554

// query Need relative viability of COc1nc(C)cnc1NS(=O)(=O)c1cccnc1-c1ccc(-c2nnco2)cc1 [Zibotentan] + N=C(N)NC(=N)NCCc1ccccc1 [Phenformin] (partner 250 µM) , thanks.
// result 0.242

For the next question, use this compound.
// query GET /values?readout=relative viability&item= COc1nc(C)cnc1NS(=O)(=O)c1cccnc1-c1ccc(-c2nnco2)cc1 [Zibotentan] + C[C@@H](Oc1cc(-c2cnn(C3CCNCC3)c2)cnc1N)c1c(Cl)ccc(F)c1Cl [Crizotinib] (partner 1 µM)
// result 0.875

====

System: SW 1573
Assay: relative viability (nuclei count vs DMSO), 5 days (fraction); higher = more cells survive
Settings: first compound 2.53 µM
Entries and their measured relative viability follow.
Please respond with just the number, no unit label.

// query Report relative viability for COc1nc(C)cnc1NS(=O)(=O)c1cccnc1-c1ccc(-c2nnco2)cc1 [Zibotentan] + CS(=O)(=O)CCNCc1ccc(-c2ccc3ncnc(Nc4ccc(OCc5cccc(F)c5)c(Cl)c4)c3c2)o1 [Lapatinib] (partner 2 µM) please.
// result 1.14

// query Can you share its relative viability? I mean this compound: COc1nc(C)cnc1NS(=O)(=O)c1cccnc1-c1ccc(-c2nnco2)cc1 [Zibotentan] + CC(C)C[C@H](NC(=O)[C@H](Cc1ccccc1)NC(=O)c1cnccn1)B(O)O [Bortezomib] (partner 0.002 µM)
// result 1.28

// query # get_value(readout='relative viability', item= COc1nc(C)cnc1NS(=O)(=O)c1cccnc1-c1ccc(-c2nnco2)cc1 [Zibotentan] + CC(=O)Nc1cccc(-n2c(=O)n(C3CC3)c(=O)c3c(Nc4ccc(I)cc4F)n(C)c(=O)c(C)c32)c1 [Trametinib] (partner 0.02 µM) )
// result 0.729

More entries:
// query Suppose we examine the compound COc1nc(C)cnc1NS(=O)(=O)c1cccnc1-c1ccc(-c2nnco2)cc1 [Zibotentan] + CS(=O)(=O)N1CCN(Cc2cc3nc(-c4cccc5[nH]ncc45)nc(N4CCOCC4)c3s2)CC1 [Pictilisib] (partner 1 µM) ; what relative viability value has been reported?
// result 0.478
